// data source = patent US11696912B2

The following molecules are listed with their measured inhibition at 3 µM values.
- measurement target: NaV1.7 (Homo sapiens)
- Construct: expressed in transfected cells; host or cells: Tetracycline-inducible cell line kept under hygromycin and blasticidin selection
- experimental protocol: Nav1.7 intracellular inhibition, whole cell patch clamp (internal block)
- Format: cell-based
- applied conditions: % inhibition at 3 μM, compound in internal solution

CCOC(=O)c1scc(C)c1NC(=O)C[n+]1cccn1C1CCCCC1 [C]
70 to 90%

Q) What measured inhibition at 3 µM goes with COC(=O)c1scc(C)c1NC(=O)C[n+]1cccn1C1CCCCC1 [Compound 22] ?
A) 40 to 70%

Q) What measured inhibition at 3 µM goes with CCCOC(=O)c1scc(C)c1NC(=O)C[n+]1cccn1C1CCCCC1.[Br-] [B] ?
A) > 90%

Q) What measured inhibition at 3 µM goes with Cc1csc(C(=O)OC(C)(C)C)c1NC(=O)C[n+]1cccc(-c2ccccc2)c1.[Br-] [A] ?
A) 70 to 90%

Q) What measured inhibition at 3 µM goes with Cc1cccc(C(=O)OC(C)(C)C)c1NC(=O)C[n+]1cccn1C1CCCCC1.[Br-] [D] ?
A) 70 to 90%

Q) What measured inhibition at 3 µM goes with COC(=O)c1scc(C)c1NC(=O)C[n+]1cccc(-c2ccccc2)c1 [Compound 23] ?
A) 40 to 70%

###

- experimental protocol: PAMPA artificial lipid membrane permeability
- Format: in vitro ADME
- applied conditions: PAMPA; pH 7.4, 4 hours incubation, GIT lipid
The following compounds are listed with their measured Papp at 4 h, 50 µM values.

COC(=O)c1scc(C)c1NC(=O)C[n+]1cccc(-c2ccccc2)c1
< 1 ×10⁻⁶ cm/s

Consider the record given below.
Q) What measured Papp at 4 h, 50 µM goes with COC(=O)c1scc(C)c1NC(=O)C[n+]1cccn1C1CCCCC1 ?
A) < 1 ×10⁻⁶ cm/s

###

- measurement target: NaV1.7 (Homo sapiens, UniProt Q15858)
- Construct: expressed in transfected cells; host or cells: Tetracycline-inducible cell line kept under hygromycin and blasticidin selection
- Sequence (Q15858 whole entry): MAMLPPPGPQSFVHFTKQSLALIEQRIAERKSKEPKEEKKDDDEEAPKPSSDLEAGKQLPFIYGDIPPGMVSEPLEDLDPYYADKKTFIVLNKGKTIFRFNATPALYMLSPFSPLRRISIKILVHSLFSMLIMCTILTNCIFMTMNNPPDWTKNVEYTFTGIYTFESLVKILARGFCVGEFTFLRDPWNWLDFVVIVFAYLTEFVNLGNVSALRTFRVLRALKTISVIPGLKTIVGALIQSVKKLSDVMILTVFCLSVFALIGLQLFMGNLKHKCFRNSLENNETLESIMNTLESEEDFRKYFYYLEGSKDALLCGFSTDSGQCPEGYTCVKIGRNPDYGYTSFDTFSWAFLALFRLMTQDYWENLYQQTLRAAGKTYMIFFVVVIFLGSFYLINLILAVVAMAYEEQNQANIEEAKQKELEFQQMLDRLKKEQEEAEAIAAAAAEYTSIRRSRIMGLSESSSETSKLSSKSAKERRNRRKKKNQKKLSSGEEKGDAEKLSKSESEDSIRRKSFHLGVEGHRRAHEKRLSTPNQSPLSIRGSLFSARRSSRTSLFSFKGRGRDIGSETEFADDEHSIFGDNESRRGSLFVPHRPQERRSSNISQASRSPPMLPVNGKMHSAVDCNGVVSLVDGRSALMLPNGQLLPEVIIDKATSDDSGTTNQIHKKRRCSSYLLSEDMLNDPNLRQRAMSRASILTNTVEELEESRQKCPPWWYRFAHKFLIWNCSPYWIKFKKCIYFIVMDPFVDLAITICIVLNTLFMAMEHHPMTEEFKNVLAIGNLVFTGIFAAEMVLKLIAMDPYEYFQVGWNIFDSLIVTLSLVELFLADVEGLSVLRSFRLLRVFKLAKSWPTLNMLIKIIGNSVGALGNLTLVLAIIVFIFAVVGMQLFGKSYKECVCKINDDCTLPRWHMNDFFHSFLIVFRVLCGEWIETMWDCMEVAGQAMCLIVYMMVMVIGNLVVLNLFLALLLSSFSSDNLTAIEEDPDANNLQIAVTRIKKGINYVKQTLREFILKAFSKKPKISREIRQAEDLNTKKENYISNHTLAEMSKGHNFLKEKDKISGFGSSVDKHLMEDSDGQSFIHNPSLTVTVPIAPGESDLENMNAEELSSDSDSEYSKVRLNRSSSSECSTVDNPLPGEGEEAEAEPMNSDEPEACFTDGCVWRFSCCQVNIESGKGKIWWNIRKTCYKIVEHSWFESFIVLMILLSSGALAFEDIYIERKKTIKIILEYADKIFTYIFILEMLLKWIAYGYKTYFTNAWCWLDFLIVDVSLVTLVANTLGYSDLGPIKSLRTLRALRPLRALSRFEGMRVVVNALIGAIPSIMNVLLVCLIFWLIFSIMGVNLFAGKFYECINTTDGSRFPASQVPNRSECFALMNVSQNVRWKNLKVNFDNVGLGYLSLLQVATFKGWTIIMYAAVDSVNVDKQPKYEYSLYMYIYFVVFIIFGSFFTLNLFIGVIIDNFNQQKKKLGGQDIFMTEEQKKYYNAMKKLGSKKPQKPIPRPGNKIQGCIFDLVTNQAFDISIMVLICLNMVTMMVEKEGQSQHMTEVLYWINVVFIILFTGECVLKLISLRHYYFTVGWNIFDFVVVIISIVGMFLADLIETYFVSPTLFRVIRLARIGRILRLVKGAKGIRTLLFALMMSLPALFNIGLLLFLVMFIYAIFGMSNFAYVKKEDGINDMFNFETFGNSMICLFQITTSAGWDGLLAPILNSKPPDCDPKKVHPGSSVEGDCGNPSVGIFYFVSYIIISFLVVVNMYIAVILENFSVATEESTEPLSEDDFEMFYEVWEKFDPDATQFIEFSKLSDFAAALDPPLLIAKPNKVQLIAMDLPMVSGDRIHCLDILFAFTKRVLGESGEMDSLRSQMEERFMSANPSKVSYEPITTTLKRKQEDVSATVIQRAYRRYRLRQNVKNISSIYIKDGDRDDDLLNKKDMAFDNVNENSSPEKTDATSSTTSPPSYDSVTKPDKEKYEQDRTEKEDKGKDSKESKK
- experimental protocol: Nav1.7 extracellular inhibition, whole cell patch clamp (external block)
- Format: cell-based
- applied conditions: read-out: Nav1.7 extracellular inhibition; extracellular inhibition, % inhibition at 10 μM, compound in external solution; read-out: Nav1.7 Intracellular Inhibition
recorded metric: inhibition at 10 µM

COC(=O)c1scc(C)c1NC(=O)C[n+]1cccc(-c2ccccc2)c1 [Compound 23]
< 40%
Cc1csc(C(=O)OC(C)(C)C)c1NC(=O)C[n+]1cccc(-c2ccccc2)c1.[Br-] [A]
40 to 70%
COC(=O)c1scc(C)c1NC(=O)C[n+]1cccn1C1CCCCC1 [Compound 22]
< 40%
CCOC(=O)c1scc(C)c1NC(=O)C[n+]1cccn1C1CCCCC1 [C]
< 40%

Q) Return inhibition at 10 µM measured with NaV1.7 (Homo sapiens, UniProt Q15858) given this compound: Cc1cccc(C(=O)OC(C)(C)C)c1NC(=O)C[n+]1cccn1C1CCCCC1.[Br-] [D]
A) < 40%

Q) Return inhibition at 10 µM measured with NaV1.7 (Homo sapiens, UniProt Q15858) given this compound: CCCOC(=O)c1scc(C)c1NC(=O)C[n+]1cccn1C1CCCCC1.[Br-] [B]
A) < 40%
